Readings of pIC50 for the listed compounds
- ASSAYED TARGET: p101/p110γ protein (PI3Kγ) (Homo sapiens, UniProt P48736)
- Construct: HA; made in house; host or cells: Spodoptera frugiperda (Sf9) cells, baculovirus coinfection
- Sequence (P48736 whole entry, species assumed): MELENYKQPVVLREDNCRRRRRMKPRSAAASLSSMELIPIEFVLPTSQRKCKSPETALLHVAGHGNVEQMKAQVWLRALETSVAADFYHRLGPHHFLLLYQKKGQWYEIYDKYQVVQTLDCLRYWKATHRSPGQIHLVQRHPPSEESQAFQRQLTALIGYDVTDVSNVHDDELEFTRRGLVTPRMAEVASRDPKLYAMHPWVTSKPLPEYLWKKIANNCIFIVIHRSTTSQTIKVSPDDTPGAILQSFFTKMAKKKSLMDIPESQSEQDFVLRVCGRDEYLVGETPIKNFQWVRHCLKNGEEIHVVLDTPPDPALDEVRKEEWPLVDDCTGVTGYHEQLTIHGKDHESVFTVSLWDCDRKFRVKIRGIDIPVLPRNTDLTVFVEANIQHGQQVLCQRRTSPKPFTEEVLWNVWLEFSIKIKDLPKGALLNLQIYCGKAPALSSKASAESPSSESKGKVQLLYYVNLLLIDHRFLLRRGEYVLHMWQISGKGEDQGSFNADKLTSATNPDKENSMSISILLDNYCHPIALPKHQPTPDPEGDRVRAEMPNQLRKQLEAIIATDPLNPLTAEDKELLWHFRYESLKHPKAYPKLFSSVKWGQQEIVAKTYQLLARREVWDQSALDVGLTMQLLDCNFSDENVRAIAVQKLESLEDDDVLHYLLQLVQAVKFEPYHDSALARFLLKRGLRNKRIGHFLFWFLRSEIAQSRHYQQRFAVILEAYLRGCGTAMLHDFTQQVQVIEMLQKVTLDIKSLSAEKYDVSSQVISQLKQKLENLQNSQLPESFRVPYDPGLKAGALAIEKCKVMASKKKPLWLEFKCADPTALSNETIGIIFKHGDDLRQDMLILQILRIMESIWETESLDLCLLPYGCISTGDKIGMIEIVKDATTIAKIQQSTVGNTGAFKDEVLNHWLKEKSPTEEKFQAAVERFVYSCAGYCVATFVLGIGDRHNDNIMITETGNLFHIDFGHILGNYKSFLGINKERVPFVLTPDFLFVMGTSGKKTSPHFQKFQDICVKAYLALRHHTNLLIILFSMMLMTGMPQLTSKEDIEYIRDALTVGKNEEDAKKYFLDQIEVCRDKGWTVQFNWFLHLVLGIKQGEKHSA
- Sequence (Q8WYR1 whole entry partner, species assumed): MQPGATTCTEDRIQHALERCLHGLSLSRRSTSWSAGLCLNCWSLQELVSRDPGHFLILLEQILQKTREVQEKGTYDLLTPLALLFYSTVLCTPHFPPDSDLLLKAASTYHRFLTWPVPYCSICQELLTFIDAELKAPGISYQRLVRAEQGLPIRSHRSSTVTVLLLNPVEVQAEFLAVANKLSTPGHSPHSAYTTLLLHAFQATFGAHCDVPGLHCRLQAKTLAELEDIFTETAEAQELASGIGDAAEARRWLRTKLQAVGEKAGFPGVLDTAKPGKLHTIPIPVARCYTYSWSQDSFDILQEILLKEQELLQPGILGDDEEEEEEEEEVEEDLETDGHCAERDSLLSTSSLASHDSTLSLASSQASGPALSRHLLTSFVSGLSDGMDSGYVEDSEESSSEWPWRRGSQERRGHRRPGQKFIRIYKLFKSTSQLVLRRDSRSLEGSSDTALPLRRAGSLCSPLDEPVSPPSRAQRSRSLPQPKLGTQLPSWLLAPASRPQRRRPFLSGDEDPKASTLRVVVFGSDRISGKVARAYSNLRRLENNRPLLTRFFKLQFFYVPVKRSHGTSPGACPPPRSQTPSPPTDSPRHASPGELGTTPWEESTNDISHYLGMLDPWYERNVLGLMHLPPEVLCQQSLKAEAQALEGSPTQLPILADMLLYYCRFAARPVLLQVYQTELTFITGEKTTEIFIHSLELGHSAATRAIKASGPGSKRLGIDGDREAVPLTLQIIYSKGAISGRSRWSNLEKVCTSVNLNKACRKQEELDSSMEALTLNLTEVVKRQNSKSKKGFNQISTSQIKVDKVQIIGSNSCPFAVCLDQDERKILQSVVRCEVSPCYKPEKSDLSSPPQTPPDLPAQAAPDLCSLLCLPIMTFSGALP
- EXPERIMENT DESCRIPTION: PI3Kγ In Vitro Kinase Assay
- Format: biochemical
- REPORTED CONDITIONS: purified recombinant p101/p110γ with G protein β1/γ2 subunits; 20 μM ATP, 25 μM PIP2; 20 minutes at room temperature; radioactive PIP3 readout
// field semantics: pIC50 = negative decimal log of concentration (mol/L)

Reference set, count: 3
[[record]]
structure = "COc1cccc(C(=O)N2CCOc3ccc(C=C4SC(=S)NC4=O)cc32)c1"
reading = 7.00

[[record]]
structure = "O=C1NC(=S)SC1=Cc1ccc2c(c1)N(C(=O)C1CCCCCC1)CCO2"
reading = 7.57

[[record]]
structure = "O=C1NC(=S)SC1=Cc1ccc2c(c1)N(C(=O)CSc1ccccc1)CCO2"
reading = 7.92


Please find the next compound below.
Prompt: Query pIC50 on p101/p110γ protein (PI3Kγ) (Homo sapiens, UniProt P48736) for O=C1NC(=S)SC1=Cc1ccc2c(c1)N(C(=O)C=Cc1ccccc1)CCO2
Response: 8.15

###

- ASSAYED TARGET: p101/p110γ protein (PI3Kγ) (Homo sapiens)
- Construct: HA
- EXPERIMENT DESCRIPTION: PI3Kγ In Vitro Kinase Assay
- REPORTED CONDITIONS: purified recombinant p101/p110γ with G protein β1/γ2 subunits; 20 μM ATP, 25 μM PIP2; 20 minutes at room temperature; radioactive PIP3 readout
Classify: true (1) when IC50 is strictly less than 500 nM; false (0) when IC50 is not.

[[record]]
compound = "CCC(C(=O)N1CCOc2ccc(C=C3SC(=S)NC3=O)cc21)c1ccccc1 (stereo not drawn)"
group = "false (0)"


Turning now to a further compound:
Prompt: Please let me know if Cc1cc(C)cc(CN2c3cc(C=C4SC(=S)NC4=O)ccc3OCC2C)c1 (stereo not drawn) shows IC50 below 500 nM.
Response: false (0)

###

- ASSAYED TARGET: p101/p110γ protein (PI3Kγ) (Homo sapiens)
- Construct: HA; made in house; host or cells: Spodoptera frugiperda (Sf9) cells, baculovirus coinfection
- EXPERIMENT DESCRIPTION: PI3Kγ In Vitro Kinase Assay
- Type: biochemical
- REPORTED CONDITIONS: purified recombinant p101/p110γ with G protein β1/γ2 subunits; 20 μM ATP, 25 μM PIP2; 20 minutes at room temperature; radioactive PIP3 readout
OBSERVATION TYPE: IC50
Express your answer as a number followed by its unit.

Reference set, count: 6
[[record]]
compound = "CC1CCCCC1CCC(=O)N1CCOc2ccc(C=C3SC(=S)NC3=O)cc21 (stereo not drawn)"
observation_type = "IC50"
reading = "120 nM"

[[record]]
compound = "O=C1NC(=S)SC1=Cc1ccc2c(c1)N(C(=O)Nc1ccc(Cl)cc1C(F)(F)F)CCCO2"
observation_type = "IC50"
reading = "1870 nM"

[[record]]
compound = "COc1cccc(NC(=O)N2CCOc3ccc(C=C4SC(=S)NC4=O)cc32)c1"
observation_type = "IC50"
reading = "125 nM"

[[record]]
compound = "COc1cc(CC(=O)N2CCOc3ccc(C=C4SC(=S)NC4=O)cc32)cc(OC)c1"
observation_type = "IC50"
reading = "115 nM"

[[record]]
compound = "COc1ccc(NC(=O)N2CCOc3ccc(C=C4SC(=S)NC4=O)cc32)cc1OC"
observation_type = "IC50"
reading = "14 nM"

[[record]]
compound = "CC(=O)N1CCOc2ccc(C=C3SC(=S)NC3=O)cc21"
observation_type = "IC50"
reading = "33 nM"


Prompt: Query IC50 on p101/p110γ protein (PI3Kγ) (Homo sapiens) for O=C1NC(=S)SC1=Cc1ccc2c(c1)NCCCO2
Response: 445 nM

Prompt: Query IC50 on p101/p110γ protein (PI3Kγ) (Homo sapiens) for O=C1NC(=S)SC1=Cc1ccc2c(c1)N(C(=O)C1CCCC1)CCO2
Response: 14 nM

Prompt: Query IC50 on p101/p110γ protein (PI3Kγ) (Homo sapiens) for CC(C)(C)c1ccc(C(=O)N2CCOc3ccc(C=C4SC(=S)NC4=O)cc32)cc1
Response: 245 nM
